Please provide measured OD450 for the entries that follow.
test target: T1, human MSLN-hFc protein (Acro, Cat. No. MSN-H5253) (human, UniProt Q13421 296-580)
T1 construct: the method names the coated protein as human MSLN-hFc (Acro); also called human MSLN full-length protein
T1 sequence (Q13421 other isoform, or with tags, fused parts or gaps limits assumed): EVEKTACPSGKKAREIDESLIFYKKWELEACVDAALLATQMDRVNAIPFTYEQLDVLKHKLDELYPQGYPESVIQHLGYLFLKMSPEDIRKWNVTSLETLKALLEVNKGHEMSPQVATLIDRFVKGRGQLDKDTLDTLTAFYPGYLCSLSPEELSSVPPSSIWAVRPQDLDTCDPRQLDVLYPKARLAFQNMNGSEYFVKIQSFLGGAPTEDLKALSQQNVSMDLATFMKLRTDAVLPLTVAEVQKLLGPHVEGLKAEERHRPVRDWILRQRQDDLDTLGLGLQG
experimental details: ELISA on coated antigen, antibody 0.0001 nM
Remember to follow the number with its unit.

| binder | OD450 |
| --- | --- |
| F7.44.20-H4 (scFv, not shown: small tags and cut ends, also called S009-F7.44.20 humanized antibody VH1 + VL4) scFv: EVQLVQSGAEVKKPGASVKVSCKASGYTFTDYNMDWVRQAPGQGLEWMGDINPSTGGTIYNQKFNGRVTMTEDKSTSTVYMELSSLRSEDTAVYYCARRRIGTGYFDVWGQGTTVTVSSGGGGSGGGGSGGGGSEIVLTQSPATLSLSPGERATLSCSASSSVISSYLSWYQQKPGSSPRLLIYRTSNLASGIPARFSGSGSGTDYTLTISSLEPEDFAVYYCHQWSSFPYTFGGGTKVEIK | 0.05 OD450 |

Now let's try a different one.
Per the records, this binder ( F7.44.20-H1 (scFv, not shown: small tags and cut ends, also called S009-F7.44.20 humanized antibody VH1 + VL1) scFv: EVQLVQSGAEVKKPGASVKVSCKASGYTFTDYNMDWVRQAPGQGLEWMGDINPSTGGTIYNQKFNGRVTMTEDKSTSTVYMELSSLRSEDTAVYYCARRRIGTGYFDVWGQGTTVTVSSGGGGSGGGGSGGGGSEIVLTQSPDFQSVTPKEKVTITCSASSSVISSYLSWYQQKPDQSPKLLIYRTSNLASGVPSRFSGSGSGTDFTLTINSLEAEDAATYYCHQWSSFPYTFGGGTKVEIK ) has OD450 equal to 0.05 OD450
